Source: patent US20230183352A1

- experimental target: T1, Claudin 18.2 (CLDN18.2), expressed on CHOS-CLDN 18.2 / HEK293-CLDN 18.2 / HCC827-CLDN 18.2 cells (human, UniProt P56856-2 1-261)
- T1 construct: whole, on cells; The species is not repeated for the CHOS-CLDN 18.2 cells; also called claudin-18A2
- experimental details: FACS, CHOS-CLDN18.2 cells, 1.250 µg/ml
measured quantity: FACS reading
The reply should be a number, written without any unit.

# binder, FACS reading
records = [
    ("QP192193 (antibody, human IgG1, V domains shown, Chimeric; also called 40F1; mouse-derived chimeric antibody QP192193) VH: QVQLQQSGAELVRPGSSVKISCKASGYAFSSYWMNWVKQRPGQGLEWIGQIYPGNGDTTYNGKFKGQATLTADKSSSTVYMQLSSLTSEDSAVYFCARFVKGNAMDYWGQGTSVTVSS VL: DIVMTQSPSSLTVTAGEKVTMSCKSSQSLLNSGNQKNYLTWYQQNPGQPPKMLIYWASTRESGVPDRFTGSGSGIDFSLTISSVQAEDLALYYCQNAYSYPFTFGSGTKLEIK", 168000),
]

// lookup FACS reading for QP14451442 (antibody, human IgG1, kappa, V domains shown, Humanized from QP192193) VH: QVQLVQSGAEVKKPGASVKVSCKASGYAFSSYWMNWVRQAPGQGLEWIGQIYPGNGDTTYNGKFKGRVTMTADKSTSTVYMELSSLRSEDTAVYFCARFVKGNAMDYWGQGTLVTVSS VL: DIVMTQSPDSLAVSLGERATISCKSSQSLLNSGNQKNYLTWYQQKPGQPPKMLIYWASTRESGVPDRFSGSGSGIDFTLTISSVQAEDVAVYYCQNAYSYPFTFGQGTKLEIKR
137000
